Catalogue of molecules with associated Residual turnover [%]
- System: HPPD polypeptides
- PROTOCOL DESCRIPTION: coupled HPPD activity assay: turnover and residual turnover in crude extracts
- Format: biochemical, Pseudomonas fluorescens
- TEST CONDITIONS: 100 μM Cmpd. 1; signal change with inhibitor divided by signal change without inhibitor

{"MOLECULE": "31 (protein, mutant HPPD polypeptide) MADLYENPMGLMGFEFIEFASPTPGTLEPIFEIMGFTKVATHRSKNVHLYRQGEINLILNNEPNSIASYFAAEHGPSVCGMAFRVKDSQKAYNRALELGAQPIHIDTGPMELNLPAIKGIGGAPLYLIDRFGEGSSIYDIDFVYLEGVERNPVGAGLKVIDHLTHNVYRGRMVYWANFYEKLFNFREARYFDIKGEYTGLTSKAMSAPDGMIRIPLNEESSKGAGQIEEFLMQFNGEGIQHVAFLTDDLVKTWDALKKIGMRFMTAPGDTYYEMLEGRLPDHGEPVDQLQARGILLDGSSVEGDKRLLLQIFSETLMGPVFFEFIQRKGDDGFGPHSFKVLFESVERDQVRRGVLTAD", "Residual turnover [%] / %": 37}
{"MOLECULE": "60 (protein, mutant HPPD polypeptide) MADLYENPMGLMGFEFIEFASPTPGTLEPIFEIMGFTKVATHRSKNVHLYRQGEINLILNNEPNSIASYFAAEHGPSVCGMAFRVKDSQKAYNRALELGAQPIHIDTGPMELNLPAIKGIGGAPLYLIDRFGEGSSIYDIDFVYLEGVERNPVGAGLKVIDHLTHNVYRGRIDYWANFYEKLFNFREARYFDIKGEYTGLTSKAMSAPDGMIRIPLNEESSKGAGQIEEFLMQFNGEGIQHVAFLTDDLVKTWDALKKIGMRFMTAPADSYYEMLEGRLPDHGEPVDQLQARGILLDGSSVEGDKRLLLQIFSETLMGPVFFEFIQRKGDDGFGPDSFKVLFESKERDQVRRGVLTAD", "Residual turnover [%] / %": 45}

Taken from patent US11180770B2.
